Target: Serine/threonine-protein kinase 4 (Homo sapiens);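 also: mean inhibition of MST1, part of the GSK PKIS dataset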
Sequence (whole entry): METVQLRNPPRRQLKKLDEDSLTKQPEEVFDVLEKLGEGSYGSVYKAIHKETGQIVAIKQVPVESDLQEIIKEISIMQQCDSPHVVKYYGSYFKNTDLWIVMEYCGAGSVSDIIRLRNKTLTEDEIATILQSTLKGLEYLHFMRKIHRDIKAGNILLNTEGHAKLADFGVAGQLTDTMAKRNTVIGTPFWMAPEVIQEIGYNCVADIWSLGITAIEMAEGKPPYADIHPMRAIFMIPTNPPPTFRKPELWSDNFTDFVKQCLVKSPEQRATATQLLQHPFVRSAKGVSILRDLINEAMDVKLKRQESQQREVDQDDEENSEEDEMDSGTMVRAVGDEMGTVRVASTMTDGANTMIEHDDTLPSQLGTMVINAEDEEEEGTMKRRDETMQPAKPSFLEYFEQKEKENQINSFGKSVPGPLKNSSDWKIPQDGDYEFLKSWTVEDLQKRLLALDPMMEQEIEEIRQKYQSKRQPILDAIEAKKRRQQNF
Conditions: at 1 µM
metric: inhibition (%)
Supply the numeric figure in %, leaving out any unit text.

Here's what some known entries look like.
Return inhibition for the following compound: CNC(=O)c1cncc(/C=C/c2c(C)cccc2C)c1
3.51

Return inhibition for the following compound: O=C(Nc1n[nH]c2nc(-c3ccco3)ccc12)C1CC1
1.95

Return inhibition for the following compound: Fc1ccc(-c2ncn(CCCN3CCOCC3)c2-c2ccncc2)cc1
4.22

Return inhibition for the following compound: O=C(NCC1CC1)c1ccc(-c2cccc(C(=O)NC3CC3)c2)cc1
5.3

New cases:
Return inhibition for the following compound: FC(F)(F)c1cccc(Nc2nccc(-c3cnn4nc(-c5ccccc5)ccc34)n2)c1
3.6

Return inhibition for the following compound: CS(=O)(=O)CCNCc1ccc(-c2ccc3ncnc(Nc4ccc(OCc5ccccc5)c(Br)c4)c3c2)o1
2.76

Return inhibition for the following compound: CCc1nccc2c1nc(-c1nonc1N)n2CC
-0.39

Return inhibition for the following compound: CN(C)CCCNc1nccc(-c2c(-c3ccc(F)cc3)nn3cc(C(F)(F)F)ccc23)n1
4.75

Return inhibition for the following compound: C#Cc1cccc(Nc2ncnc3ccc(OCCCCNCCS(C)(=O)=O)cc23)c1
7.8
